test system: L1210 leukemia ip in BDF1 mice, survival T/C; experiment: NCI In Vivo Anticancer Drug Screen. Data for tumor model L1210 Leukemia (intraperitoneal) in B6D2F1 (BDF1) mice; conditions: endpoint: mean survival time; dose: 50.0 mg/kg/injection; schedule: Q01DX009 (ip); vehicle: Klucel (hydroxypropylcellulose) (HPC); higher = longer survival
Inconclusive results and toxic doses are left out.
Would you mind telling me the reported T/C of each entry?

Input "[O-][n+]1ccc(CC(O)(C(F)(F)F)C(F)(F)F)cc1" . Output T/C: 92 % of control

Input "C=CCc1ccc(OCCNC(=O)Nc2ccc(C)cc2[N+](=O)[O-])c(OC)c1" . Output T/C: 87 % of control

Input "O=C(O)/C(Br)=C\c1ccc(Br)o1" . Output T/C: 97 % of control

Input "Brc1cc(Br)c(-c2c(Br)cc(Br)cc2Br)c(Br)c1" . Output T/C: 111 % of control

Input CCCCC1C(=O)N=C2C=CC=CN2C1=O (stereo not given) . Output T/C: 100 % of control

Input "Cc1ccc(C2(O)CCN(CCCC(=O)c3ccc(F)cc3)CC2)cc1" . Output T/C: 104 % of control

Input C/C(=N/NC(N)=O)C1CC2CCC1CC2 (stereo not given) . Output T/C: 102 % of control

Input "Cc1cccc(CN=C(N)CSS(=O)(=O)O)n1" . Output T/C: 96 % of control

Input CC1Nc2ccccc2N2C(=O)CCC12 (stereo not given) . Output T/C: 106 % of control

Input "O=C(/C=C/c1ccccc1)Nc1cc([N+](=O)[O-])ccc1O" . Output T/C: 97 % of control

====

Would you mind telling me the reported T/C of each entry?
tested on: L1210 leukemia ip in BDF1 mice, survival T/C; assay: NCI In Vivo Anticancer Drug Screen. Data for tumor model L1210 Leukemia (intraperitoneal) in B6D2F1 (BDF1) mice; details: endpoint: mean survival time; dose: 400.0 mg/kg/injection; schedule: Q01DX009 (ip); vehicle: Klucel (hydroxypropylcellulose) (HPC); higher = longer survival
Toxic doses and inconclusive results are not listed.

Param item: "O=S(=O)(Nc1ccc(F)cc1)c1ccccc1" ; param system: L1210 leukemia ip in BDF1 mice, survival T/C; output T/C: 105 % of control

Param item: "Cc1ccc(NC(=O)Nc2cccc(Cl)c2)c(C)c1" ; param system: L1210 leukemia ip in BDF1 mice, survival T/C; output T/C: 87 % of control

Param item: "CCCCCCc1c(C)nc(N)[nH]c1=O" ; param system: L1210 leukemia ip in BDF1 mice, survival T/C; output T/C: 97 % of control

Param item: C=CCOCC(O)CN(C)c1ccccc1 (configuration not stated) ; param system: L1210 leukemia ip in BDF1 mice, survival T/C; output T/C: 91 % of control

Param item: "O=C(O)CCCCCNC(=O)c1ccccc1" ; param system: L1210 leukemia ip in BDF1 mice, survival T/C; output T/C: 102 % of control

Param item: "CC(C)(C)N(Cc1ccccc1)C(=O)Nc1ccccc1" ; param system: L1210 leukemia ip in BDF1 mice, survival T/C; output T/C: 103 % of control

Param item: OC(Cc1ccccc1)(c1ccccc1)c1cccc2ccccc12 (configuration not stated) ; param system: L1210 leukemia ip in BDF1 mice, survival T/C; output T/C: 92 % of control

====

system: L1210 leukemia ip in BDF1 mice, survival T/C; assay: NCI In Vivo Anticancer Drug Screen. Data for tumor model L1210 Leukemia (intraperitoneal) in B6D2F1 (BDF1) mice; settings: endpoint: mean survival time; dose: 100.0 mg/kg/injection; schedule: Q01DX009 (ip); vehicle: saline with Tween-80
Inconclusive results and toxic doses are left out. Cut-off read from the data, not from the text of the source: active = T/C of 150% or more; inactive = T/C below 125%.
Select the correct class. Options are yes (1) = active, no (0) = inactive and nothing else.

Task item: I'd appreciate the recorded outcome for "COc1ccccc1OC(=S)N(C)C" from this test.
Reply: no (0)

Task item: I'd appreciate the recorded outcome for "O=C1CN=C(c2ccccn2)c2cc(Cl)ccc2N1CCO" from this test.
Reply: no (0)

Task item: I'd appreciate the recorded outcome for CCCCC(OC(=O)c1ccc([N+](=O)[O-])cc1)C(C)[N+](=O)[O-] (stereo unspecified) from this test.
Reply: no (0)

Task item: I'd appreciate the recorded outcome for "COc1ccc(-c2cc(C(=O)O)c3ccc(C)cc3n2)cc1" from this test.
Reply: no (0)

Task item: I'd appreciate the recorded outcome for "O=C(O)CCCCc1ccc(CCCCC(=O)O)cc1" from this test.
Reply: no (0)

Task item: I'd appreciate the recorded outcome for CCCC(=O)OC(C(=O)OCC)c1ccccc1 (stereo unspecified) from this test.
Reply: no (0)

Task item: I'd appreciate the recorded outcome for O=C(O)C1C2C3CC(C4CC43)C12 (stereo unspecified) from this test.
Reply: no (0)

Task item: I'd appreciate the recorded outcome for "Cc1c(F)cc(I)cc1[N+](=O)[O-]" from this test.
Reply: no (0)

Task item: I'd appreciate the recorded outcome for "C=CCN(C)/N=N/c1[nH]ncc1C(N)=O" from this test.
Reply: yes (1)

Task item: I'd appreciate the recorded outcome for Oc1cc(O)c2c(c1)OC(O)(c1ccc(O)c(O)c1)C(O)O2 (stereo unspecified) (tested in a mixture with another compound) from this test.
Reply: no (0)

Task item: I'd appreciate the recorded outcome for "CN(C)S(=O)(=O)c1ccc(NC(=O)C(Cl)Cl)cc1" from this test.
Reply: no (0)

Task item: I'd appreciate the recorded outcome for "CCN(C(=O)COc1ccc(Cl)cc1Cl)c1ccccc1C" from this test.
Reply: no (0)

Task item: I'd appreciate the recorded outcome for "COc1cc2nn(-c3ccccc3N)nc2cc1OC" from this test.
Reply: no (0)

Task item: I'd appreciate the recorded outcome for "CCOC(=O)c1[nH]c(C)c(C(C)=O)c1C" from this test.
Reply: no (0)

Task item: I'd appreciate the recorded outcome for "CN(C)N=Nc1cc(Cl)cc(C(N)=O)c1Cl" from this test.
Reply: no (0)

Task item: I'd appreciate the recorded outcome for "COC(=O)c1cc(C)n(C)c(=O)c1CNS(=O)(=O)c1ccc(C)cc1" from this test.
Reply: no (0)

Task item: I'd appreciate the recorded outcome for "NNC(=O)NN" from this test.
Reply: no (0)

Task item: I'd appreciate the recorded outcome for "C=CCSC(=S)OCC" from this test.
Reply: no (0)

Task item: I'd appreciate the recorded outcome for "CCOC(=O)c1c2c3c(c(Br)cc(C)c3[nH]c1=O)C(=O)c1ccccc1-2" from this test.
Reply: no (0)

Task item: I'd appreciate the recorded outcome for CSCCC(C#N)c1ccccc1 (stereo unspecified) from this test.
Reply: no (0)

Task item: I'd appreciate the recorded outcome for "Cc1noc(NC(=O)Nc2ccc(Cl)cc2Cl)c1C" from this test.
Reply: no (0)

Task item: I'd appreciate the recorded outcome for NC(CSC(c1ccccc1)(c1ccccc1)c1ccccc1)C(=O)O (stereo unspecified) from this test.
Reply: no (0)

Task item: I'd appreciate the recorded outcome for "OCc1ccccc1" from this test.
Reply: no (0)

Task item: I'd appreciate the recorded outcome for "Cc1cccc2c1/C(=N\Nc1ccc([N+](=O)[O-])cc1[N+](=O)[O-])CC(C)(C)C2" from this test.
Reply: no (0)

Task item: I'd appreciate the recorded outcome for O=C(CC(NC(=O)OCc1ccccc1)C(=O)O)OCc1ccccc1 (stereo unspecified) from this test.
Reply: no (0)

Task item: I'd appreciate the recorded outcome for "Cc1c2ccncc2c(C)c2c1[nH]c1ccc(Cl)cc12" from this test.
Reply: no (0)

====

system: L1210 leukemia ip in BDF1 mice, survival T/C; experiment: NCI In Vivo Anticancer Drug Screen. Data for tumor model L1210 Leukemia (intraperitoneal) in B6D2F1 (BDF1) mice; conditions: endpoint: mean survival time; dose: 20.0 mg/kg/injection; schedule: Q01DX009 (ip); vehicle: saline; higher = longer survival
Toxic doses and inconclusive results are not listed.
Would you mind telling me the reported T/C of each entry?

Input "CCCCC(=O)C1CN(C(C)(C)C)C1" . Output T/C: 97 % of control

Input "CC1(C)N=C(N)N=C(N)N1c1ccc(C(=O)Nc2cccc(S(=O)(=O)F)c2)cc1" . Output T/C: 97 % of control

Input "ClCCN1CCC2(CC1)SSC1(CCN(CCCl)CC1)S2" . Output T/C: 103 % of control

Input "COc1ccc2c(c1)Cc1cc(NC(=O)N(CCCl)N=O)ccc1-2" . Output T/C: 175 % of control

====

system: L1210 leukemia ip in BDF1 mice, survival T/C; assay: NCI In Vivo Anticancer Drug Screen. Data for tumor model L1210 Leukemia (intraperitoneal) in B6D2F1 (BDF1) mice; settings: endpoint: mean survival time; dose: 400.0 mg/kg/injection; schedule: Q01DX001 (ip); vehicle: saline; higher = longer survival
Inconclusive results and toxic doses are left out.
quantity.kind: T/C

Input "CC(C)(C#N)NC(N)=O" . Output T/C: 98 % of control

Input "COc1ccc(CCN(C)C(c2ccccc2)c2ccccc2)cc1OC" . Output T/C: 104 % of control

Input COP1(=O)OCC(C)CO1 (centres undefined) . Output T/C: 98 % of control

Input "CN(C)CCCN1CCCCC1" . Output T/C: 104 % of control

Input "COc1ccc(CN2CCCN(Cc3ccc(OC)cc3OC)C2c2ccccc2O)c(OC)c1" . Output T/C: 101 % of control

Input "CC(C(=O)O)(c1c[nH]c2ccccc12)c1c[nH]c2ccccc12" . Output T/C: 86 % of control

Input N#CC(c1ccc(Cl)cc1)c1ccc(N(CCO)CCO)cc1 (centres undefined) . Output T/C: 86 % of control

Input CC12CC3C(C(=O)O)C(C(=O)O)C1C(C(=O)O2)C3C(=O)O (centres undefined) . Output T/C: 87 % of control

Input CC(c1ccccc1)n1cnc2c(=S)nc[nH]c21 (centres undefined) . Output T/C: 103 % of control

Provenance of the data: PubChem BioAssay AID248
